Experiment: Cytotoxicity against human A549 cells assessed as reduction in cell proliferation at 100 uM incubated for 72 hrs by cell-titer 96 aqueous non-radioactive cell proliferation assay
Type: cell-based
VALUE TYPE: inhibition at 72 h, 100 µM

- COMPOUND: "CCCCCCCCCCC(O)C1C=CC2C(=O)N(c3ccccc3)C(=O)C2N1Nc1ccc([N+](=O)[O-])cc1 (stereo unspecified)"
  VALUE TYPE: "inhibition at 72 h, 100 µM"
  ENDPOINT RESULT: "≤ 50%"

----------
Assay: Cytotoxicity against human MDA-MB-231 cells assessed as reduction in cell proliferation at 100 uM incubated for 72 hrs by cell-titer 96 aqueous non-radioactive cell proliferation assay
Format: cell-based

- COMPOUND: "CCCCCCCCCCC(O)C1C=CC2C(=O)N(c3ccccc3)C(=O)C2N1Nc1ccc([N+](=O)[O-])cc1 (stereo unspecified)"
  inhibition at 72 h, 100 µM: "≤ 50%"

FYI, the data here is from ChEMBL document CHEMBL4419172.
